Give measured IC50 for each item. Keep answers brief.
# Target entity: T1, HLA-A1 (A*0101) (human)
# T1 construct: Acid-stripped B-LCL
# Method: cell competition vs YLEPAC(FI)AKY, stripped CAA B-LCL, FACS
Report only the number, with the unit µM understood.

Request: So what's the measured IC50 for this one? SLQCLQALY (also called start 294) [PRAME peptide SLQCLQALY]
Response: 2

Request: So what's the measured IC50 for this one? LSHIHASSY [PRAME peptide LSHIHASSY]
Response: 1

Request: So what's the measured IC50 for this one? YISPEKEEQY (also called start 275) [PRAME peptide YISPEKEEQY]
Response: 3

Request: So what's the measured IC50 for this one? FLSLQCLQALY (also called start 292) [PRAME peptide FLSLQCLQALY]
Response: 1

Request: So what's the measured IC50 for this one? GTLHLERLAY (also called start 453) [PRAME peptide GTLHLERLAY]
Response: 2
